System: NCI-H522
Assay: NCI tumour cell line growth inhibition, 48 h
Activity calls are given as the source filed them. Cut-off read from the data, not from the text of the source: active = GI50 up to about 1.1 µM and inactive = higher.
Outcome (select one): active, inactive

compound=Cc1ccc(S(=O)(=O)N2C[C@](O)(c3ccccc3)[C@H]2C)cc1 target_of_assay=NCI-H522 answer_label=inactive

State the result this test recorded for CN(C)c1ccc(C=C2C(=O)N(c3ccccc3)N(c3ccccc3)C2=O)cc1 .
inactive

What is the recorded call for this compound in the test? COC(=O)/C(=C/c1ccc(OC)cc1)C(C(=O)O)=C1CCCC1
inactive

Which outcome was assigned to COC(=O)c1cc(NC(=O)Cc2c[nH]c3ccccc23)cn1C in this test?
inactive

Please let me know the test result on file for [N-]=[N+]=CC(=O)OC1CCc2ccccc21 (stereo not drawn) .
inactive

I would be grateful if you could indicate the recorded call for CC1(C)CC(=O)C(C(=O)Nc2cccs2)=C(O)C1 .
inactive

Which result was noted for this compound in the test: CN1Cc2cc3cc4c(cc3nc2N(C)C1)OCCO4
inactive

Test call for this compound, please: Cc1[nH]c(=O)c2oc3cc4ccccc4cc3c2c1C(=O)O
inactive

Which outcome did this test record for the compound O=S(=O)(c1ccccc1)c1ccc(/N=N/O)nc1 ?
inactive

Hi, sorry to bother you, what did the test record for CCOC(=O)/C(C#N)=C1\c2c([nH]c(=S)[nH]c2=O)Oc2ccc3ccccc3c21 ?
inactive

Which outcome did this test record for the compound C[C@H]1CC[P+](Cc2ccccc2)(c2ccccc2)C1 (stereo partly drawn) ?
inactive

Entry S=c1scc(-c2ccc(Cl)cc2)n1OC1CCCC1 : call = ?
inactive

State the result this test recorded for O=C(N/N=C/c1cc(Br)cc(Br)c1O)c1ccccc1O .
active

###

Tested on: IGROV-1
Test: NCI tumour cell line growth inhibition, 48 h
The source made the active and inactive calls. No stated cut-off is given here; in the data, active = GI50 up to about 1.1 µM and inactive = higher.
Bench note: report the call from YES = active, NO = inactive

Field: example entries. Status: answers known.
compound=C[n+]1c(-c2ccc(/C=N\N3CCN(/N=C/c4ccc(-c5cn6ccsc6[n+]5C)cc4)CC3)cc2)cn2ccsc21 answer_label=NO
compound=O=[N+]([O-])c1cccc(-c2ccc([C@H]3CC(c4ccc(Cl)cc4)=NN3)o2)c1 answer_label=NO
compound="COC(=O)C1Cc2c([nH]c3ccccc23)C(C2CCCCC2)N1 (stereo not given)" answer_label=NO

What did the test return for Nn1c(-c2cccc(Cl)c2)nc2ccccc2c1=O ?
NO

Hi, sorry to bother you, what did the test record for COc1ccccc1NC(=O)CC(=O)n1nc(C)c(/N=N/c2ccccc2Cl)c1C ?
NO

Check the results log: what was the call for Cc1[nH]c(=O)c2oc3cc4ccccc4cc3c2c1C(=O)O ?
NO

Look up the recorded call for CC1CC(C2=CC=CCS2)=Nc2ccccc2S1 (stereo not given) in this test.
NO

Hi, do you know how Nc1ccc(C(=O)N2CCC[C@H]2CO)c(N)c1 came out in this test?
NO

// outcome(item) with item = N#Cc1nc(CCC(c2nc(C#N)c(N)o2)N2C(=O)c3ccccc3C2=O)oc1N (stereo not given)
NO

###

Test system: SR
Test: NCI tumour cell line growth inhibition, 48 h
Calls of active or inactive are those of the source. No stated cut-off is given here; in the data, active = GI50 up to about 1.1 µM and inactive = higher.
Hello, when you answer, please use one of the following outcomes: Yes for active, No for inactive

Please state the recorded outcome for this molecule: CN(C)c1ccc(C=C2C(=O)N(c3ccccc3)N(c3ccccc3)C2=O)cc1
No

Could you check what this test reported for CC1(C)N=C(N)N=C(N)N1c1cccc(OCCOc2ccc([N+](=O)[O-])cc2)c1 ?
Yes

Short answer needed: outcome of this test for Cc1[nH]c2ccccc2c1C(=O)CC1(O)C(=O)Nc2ccccc21 (stereo not given) ?
No

For this molecule, state the assay outcome: O=c1cc(/N=N\c2ccc(Cl)c(Cl)c2)[nH]c(=O)[nH]1
Yes

// param item: COc1ccc(/C=C2\CCC(Cc3ccccc3)(CN(C)C)C2=O)cc1 (stereo not given) ; yields the recorded call
No

###

Tested on: SK-OV-3
Experiment: NCI tumour cell line growth inhibition, 48 h
Activity calls are given as the source filed them. Cut-off read from the data, not from the text of the source: active = GI50 up to about 1.1 µM and inactive = higher.
# GI50 listing for each entry below

Use these answered entries as a reference point.
compound="Clc1ccc(CSc2ncnc3c2ncn3C2CCCCO2)cc1 (configuration not stated)" endpoint_result="21.4 µM (inactive)"
compound="CCOC(=O)N1CCN(P(=O)(Nc2ccc3[nH]c(NC(=O)OC)nc3c2)Oc2ccccc2)CC1 (configuration not stated)" endpoint_result="> 100 µM (inactive)"
compound=CCC/N=C/c1cc(Cc2ccc(O)c(/C=N/CCC)c2)ccc1O endpoint_result="18.5 µM (inactive)"
compound="COc1ccc(N2C(=O)C3c4[nH]c5cccc(Cl)c5c4C4CCC(C(C)(C)C)CC4C3C2=O)cc1 (configuration not stated)" endpoint_result="64.9 µM (inactive)"
compound="COc1ccc2c3c1OC1C(=O)C=CC4(CC2)N(C)CCC314 (configuration not stated)" endpoint_result="36.4 µM (inactive)"
compound="N/N=C1\\C(=O)N(C2CCCCC2)C(=O)C1C(=O)NC1CCCCC1 (configuration not stated)" endpoint_result="47.5 µM (inactive)"

Read the next record carefully.
For CCCC(=O)N[C@H]1C2C3CC4C5CC(C42)C1(C)C53 (some centres not stated) the compound record lists GI50 as > 100 µM (inactive)

###

System: NCI/ADR-RES
Test: NCI tumour cell line growth inhibition, 48 h
The source made the active and inactive calls. No stated cut-off is given here; in the data, active = GI50 up to about 1.1 µM and inactive = higher.
Reply using exactly one outcome from t = active, f = inactive

compound=COC(=O)N/N=C(\c1ccccc1)c1ccc(OC)cc1 target_of_assay=NCI/ADR-RES answer_label=f

Please let me know the test result on file for CC1(C)[N+]([O-])=[N+]([O-])C1(C)O (centres undefined) .
f

Outcome logged for CN(C)Cc1cc(C(=O)/C=C/c2ccc(Cl)cc2)cc(CN(C)C)c1O in this assay:
f

Assay outcome for CC1(C)C2CCC1(CC(=O)O)C(Cl)C2 (centres undefined) : what was it?
f

Tell me the assay call for CC1CC(=O)Nc2ccc(/N=N/N(C)C)cc2N1C=O (centres undefined) please.
f

###

Tested on: U-251
Test: NCI tumour cell line growth inhibition, 48 h
The source made the active and inactive calls. Cut-off read from the data, not from the text of the source: active = GI50 up to about 1.1 µM and inactive = higher.
Outcomes you can answer with include only these: active, inactive

compound=CN1C(=O)C(=CN)C(=O)N(C)C1=O answer_label=inactive

Tell me the assay call for COc1cc([C@H]2c3[nH]c4ccccc4c3C[C@H]3COC(=O)N32)cc(OC)c1O please.
active

Name the outcome recorded for O=[N+]([O-])C(=C(Nc1cccc2cccnc12)Nc1cccc2cccnc12)C(Cl)=C(Cl)Cl in the assay.
inactive

Lab log entry: CC(=O)O[C@H]1C[C@H]2[C@@H]([C@H](OC(C)=O)C[C@@H]3CC4(CC[C@@]32C)OOC2(CCCCC2)OO4)[C@@H]2CC[C@H]([C@H](C)CCC(=O)O)[C@@]12C — outcome as called in the assay?
inactive

GET /call?item= O=C(NC1C=Nc2ccc([N+](=O)[O-])cc2NC1=O)c1cc(Cl)cc([N+](=O)[O-])c1 (stereo not given) returns the recorded outcome of this test.
inactive

I would be grateful if you could indicate the recorded call for COc1cc(COC(=O)N(C)[C@@H](Cc2ccccc2)C(=O)O)c([N+](=O)[O-])cc1OC .
inactive

###

# maps each entry to its GI50
Tested on: HCT-15

compound=COC(=O)[C@@H]1N2C(=S)N(c3ccccc3)C(=O)[C@H]2SC1(C)C target_of_assay=HCT-15 endpoint_result="> 100 µM"
compound=COc1cc(OC)c(OC)cc1/C=C/c1ccccn1 target_of_assay=HCT-15 endpoint_result="> 10 µM"
compound=CN(C)CCCNC(=O)CNC(=O)c1cc(NC(=O)c2cc(NC(=O)c3cc(NC(=O)CCNC(=O)c4cc(NC(=O)c5cc(NC(=O)c6nccn6C)cn5C)cn4C)cn3C)cn2C)cn1C target_of_assay=HCT-15 endpoint_result="> 100 µM"
compound="O=C(O)CCC(C(=O)O)N1C(=O)c2ccccc2C1=O (stereo not given)" target_of_assay=HCT-15 endpoint_result="> 100 µM"

Please examine the following record next.
// sample CC[C@@H]1OC2(C)CC(S(=O)(=O)c3ccccc3O)CC1O2 (stereo not given in full) , its GI50 was > 100 µM

###

Test system: T47D
Assay: NCI tumour cell line growth inhibition, 48 h
Active and inactive are the calls of the source. Rule as the data show it: active = GI50 up to about 1.1 µM and inactive = higher.
Allowed answers: active, inactive

molecule="O=CC(O)C(O)C(O)C(O)C(=O)NCCCCCCCCCCCCNC(=O)C(O)C(O)C(O)C(O)C=O (stereo unspecified)" answer_label=inactive
molecule=S=C(N/N=C\C=N/NC(=S)N1CCCCC1)N1CCCCC1 answer_label=active
molecule=COS(C)(=O)=O answer_label=inactive
molecule=COc1cccc(/C=N/n2c(C)n[nH]c2=O)c1 answer_label=inactive
molecule="COc1ccc(/C=C2\\CCC(Cc3ccccc3)(CN(C)C)C2=O)cc1 (stereo unspecified)" answer_label=inactive

Answer briefly: the call reported for NC(Cc1ccccc1)C(=O)OCN1C(=O)C2C3C=CC(C2C1=O)C1C(=O)N(COC(=O)C(N)Cc2ccccc2)C(=O)C31 (stereo unspecified) in this assay.
inactive

Just curious, what result did O=S(=O)(c1ccccc1)c1ccc(/N=N/O)nc1 get here?
inactive

# lookup: test call for Cn1cc2c3ccccc3nc-2c2ccccc21 [ISOCRYPTOLEPINE]
inactive

Identify the outcome logged in this assay for the molecule shown: CC1=CC(=O)N(n2c(-c3ccccc3)n[nH]c2=O)C1=O
inactive

Given CC1=NN(c2nc(N)nc(-c3ccccc3S(N)(=O)=O)n2)C(C)(C)C1 , state the outcome it received in this test.
inactive

Outcome logged for CCOC(=O)c1cc2c([nH]1)c(OC(C)=O)cc1c2ccn1Cc1ccccc1 in this assay:
inactive

Any idea what this test logged for CC(=O)O/N=C1\C=Cc2c(no[n+]2[O-])C1=O ?
inactive

Short answer needed: outcome of this test for CC1C2(C)OC(=N)C(C#N)(C(c3ccco3)O2)C1(C#N)C#N (stereo unspecified) ?
inactive
